Entries and their measured mortality follow.
Test: Toxicity in ip dosed CD-1 mouse assessed as mortality in presence of 0.2 mg/kg, ip neostigmine
Type: organism-based
Parameters: dose 0.2 mg/kg, route intraperitoneal
Conditions: in vivo
property-label: mortality (%)

compound | unit-descriptor | value
CC(=O)OCC[N+](C)(C)CC(=O)c1ccc(-c2ccc(C(=O)C[N+](C)(C)CCOC(C)=O)cc2)cc1.[Br-].[Br-] | % | 80
C[N+]1(C)CCOC(O)(c2ccc(-c3ccc(C4(O)C[N+](C)(C)CCO4)cc3)cc2)C1.[Br-].[Br-] (centres undefined) | % | 90
CC(=O)SCC[N+](C)(C)CC(=O)c1ccc(-c2ccc(C(=O)C[N+](C)(C)CCSC(C)=O)cc2)cc1.[Br-].[Br-] | % | 30
C[N+](C)(CCS)CC(=O)c1ccc(-c2ccc(C(=O)C[N+](C)(C)CCS)cc2)cc1.[Br-].[Br-] | % | 70

Every entry's value here was drawn from ChEMBL document CHEMBL3244404.
